- measurement.target: CCL22 (Homo sapiens, UniProt O00626)
- Sequence (O00626 25-93): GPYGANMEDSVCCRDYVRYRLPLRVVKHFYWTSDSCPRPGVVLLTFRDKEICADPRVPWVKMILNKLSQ
- measurement.protocol: Inhibition of intracellular calcium response (INDO-1) induced by CCL22 in HEK 293 cells expressing EGFP-CCR4 and Gqi5
- Type: cell-based
- Design: purchased; host or cells: HEK 293 cells stably expressing EGFP-CCR4, transiently transfected with Gqi5
- assay.context: HEK 293 cells expressing CCR4; 5 nM CCL22; compound concentration not given
property.measured: Inhibition of calcium responses induced by CCL22 (%)
Give bare numbers, in %.

Here's what some known entries look like.
* O=C(OCC(O)COC(=O)c1ccccc1O)c1ccccc1O [GPS008504] | 10
* O=C(O)c1ccccc1O [GPN0001207] | 0
* O=C(OCC(O)CO)c1ccccc1O (stereo in doubt) [GPS008506] | 40
* O=C(OC[C@H](O)CO)c1ccccc1 [GPS008508] | 0
* O=C(OCC(O)CO)c1ccccc1O (centres unmarked) [GPN136, 2,3-dihydroxypropyl 2-hydroxybenzoate] | 35

Fill in Inhibition of calcium responses induced by CCL22 (%) for each of the 2 compounds listed.
1. O=C(OCC(O)CO)c1ccccc1O (stereo in doubt) [GPS008505]
2. CC(=O)Oc1ccccc1C(=O)O [Acetylsalicylic acid, reference compound]

37
0

Query: Inhibition of calcium responses induced by CCL22 (%); subject: O=C(OC[C@@H](O)CO)c1ccccc1 [GPS008507] 0

###

- measurement.target: UniProt O00626
- measurement.protocol: Interaction affinity by fluorescence extinction of tryptophan residues of CCL22
- Format: binding
- assay.context: CCL22 1.5 μm, HEPES buffer without albumin, 20° C., biphasic titration curve; read-out: KD, second site
property.measured: Kd (µM)
Answers are plain numbers, in µM.

# Kd lookup, item O=C(OCC(O)CO)c1ccccc1O (stereo not shown) [GPN136, 2,3-dihydroxypropyl 2-hydroxybenzoate] 53

###

- measurement.target: UniProt O00626
- measurement.protocol: Interaction affinity by fluorescence extinction of tryptophan residues of CCL22
- Type: binding
- assay.context: CCL22 1.5 μm, HEPES buffer without albumin, 20° C., biphasic titration curve; read-out: KD, site of high affinity
pKd: −log10 of the molar value.
property.measured: pKd

Would you kindly share the measured pKd for O=C(OCC(O)CO)c1ccccc1O (stereo not shown) [GPN136, 2,3-dihydroxypropyl 2-hydroxybenzoate] ? > 7.30

Source: patent US20170281653A1
